This collection of values is drawn from ChEMBL document CHEMBL1156228.

Quick list: Activity per entry.
ASSAY DETAILS: Antioxidant activity assessed as peroxyl radical-scavenging activity at 1 mM by EPR spectroscopy
Type: functional
MEASURED METRIC: Activity (%)

>>> measured_value("COc1ccc(CCN(C)CCCC(CNC(=O)CC2(C)CCC(C)(C)N2O)(c2ccc(OC)c(OC)c2)C(C)C)cc1OC (centres undefined)")
100
>>> measured_value("COc1ccc(CCN(C)CCCC(CNC(=O)C2CC(C)(C)N(O)C(C)(C)C2)(c2ccc(OC)c(OC)c2)C(C)C)cc1OC (centres undefined)")
90.1
>>> measured_value("COc1ccc(CCN(C)CCCC(CNC(=O)C2=CC(C)(C)N(C)C2(C)C)(c2ccc(OC)c(OC)c2)C(C)C)cc1OC (centres undefined)")
89.8
>>> measured_value("COc1ccc(CCN(C)CCCC(CNC(=O)C2=CC(C)(C)NC2(C)C)(c2ccc(OC)c(OC)c2)C(C)C)cc1OC (centres undefined)")
84.1

====

Test system: CHO
ASSAY DETAILS: Antioxidant activity in CHO cells assessed as protection from H2O2-induced toxicity at 50 uM pretreated for 2 hrs before H2O2 challenge measured after 1 hr by MTT assay
Type: functional, Cricetulus griseus
Recorded Activity values for a group of compounds are listed next.
MEASURED METRIC: Activity (%)

>>> measured_value("COc1ccc(CCN(C)CCCC(CNC(=O)C2=C(C)C(C)(C)N(O)C2(C)C)(c2ccc(OC)c(OC)c2)C(C)C)cc1OC (configuration not stated)")
60
>>> measured_value("COc1ccc(CCN(C)CCCC(CNCC2=CC(C)(C)N(O)C2(C)C)(c2ccc(OC)c(OC)c2)C(C)C)cc1OC (configuration not stated)")
63.6
>>> measured_value("COc1ccc(CCN(C)CCCC(CNC(=O)C2=CC(C)(C)N(C)C2(C)C)(c2ccc(OC)c(OC)c2)C(C)C)cc1OC (configuration not stated)")
55.5
>>> measured_value("COc1ccc(CCN(C)CCCC(CNC(=O)C2CC(C)(C)N(O)C(C)(C)C2)(c2ccc(OC)c(OC)c2)C(C)C)cc1OC (configuration not stated)")
50.3
>>> measured_value("COc1ccc(CCN(C)CCCC(CNC(=O)C2CC(C)(C)N(O)C2(C)C)(c2ccc(OC)c(OC)c2)C(C)C)cc1OC (configuration not stated)")
62.1
>>> measured_value("COc1ccc(CCN(C)CCCC(CNC(=O)CC2(C)CCC(C)(C)N2O)(c2ccc(OC)c(OC)c2)C(C)C)cc1OC (configuration not stated)")
54
>>> measured_value("COc1ccc(CCN(C)CCCC(CNC(=O)C2=CC(C)(C)N(O)C2(C)C)(c2ccc(OC)c(OC)c2)C(C)C)cc1OC (configuration not stated)")
48.9
